Experiment: Annexin V-FITC/PI apoptosis flow cytometry, normal cells
Assay type: cell-based, human
Conditions: human, HUVEC normal cells, 40 μM RSV, read-out: Q3 (viable cells, FITC−PI−)
measurement-kind: viability at 24 h, 40 μM (%)
Numbers only, in %.

*Q* Can you look up the measured viability at 24 h, 40 μM of Oc1ccc(C=Cc2cc(O)cc(O)c2)cc1 [RSV, 3,5,4′-trihydroxystilbene] for me?
*A* 93.7

Every entry's value here was drawn from paper PMC7551591.
